Would you kindly list ΔH for each of these compounds?
- Experimental System: human EphB4 ephrin-binding domain (Homo sapiens, UniProt P54760)
- Sequence (P54760 17-196): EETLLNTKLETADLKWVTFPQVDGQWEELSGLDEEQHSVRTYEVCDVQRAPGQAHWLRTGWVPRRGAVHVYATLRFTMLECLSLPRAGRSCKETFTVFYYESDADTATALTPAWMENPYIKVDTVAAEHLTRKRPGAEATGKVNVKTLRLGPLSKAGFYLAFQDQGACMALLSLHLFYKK
- Protocol Description: Isothermal titration calorimetry (ITC) binding to EphB4 (17-196)
- Run Parameters: 25° C., 50 mM Tris pH 7.8, 150 mM NaCl, 1 mM CaCl2
Peptide text beside a SMILES is read from it.
Numbers only, in kcal/mol.

Query: Query (compound): CC[C@H](C)[C@H](NC(=O)[C@@H]1CCCN1C(=O)CNC(=O)[C@H](CC(N)=O)NC(=O)[C@@H]1CCCN1C(=O)[C@H](CO)NC(=O)[C@H](Cc1ccccc1)NC(=O)[C@@H](N)CC(C)C)C(=O)N[C@@H](C)C(=O)N[C@@H](CCCNC(=N)N)C(=O)N[C@@H](C)C(=O)N[C@@H](Cc1c[nH]c2ccccc12)C(=O)O [LFSP-RAW] (H-LFSPNGPIARAW-OH; N-terminus and C-terminus assumed) ; field requested: ΔH
Reply: -5.3

Hi, could you look up ΔH for each item in my list?
1. CC[C@H](C)[C@H](NC(=O)[C@@H]1CCCN1C(=O)CNC(=O)[C@H](CC(N)=O)NC(=O)[C@@H]1CCCN1C(=O)[C@H](CO)NC(=O)[C@H](Cc1ccccc1)NC(=O)[C@H](CC(C)C)NC(=O)[C@@H](N)Cc1ccc(O)cc1)C(=O)N[C@@H](C)C(=O)N[C@@H](CCCNC(=N)N)C(=O)N[C@@H](C)C(=O)N[C@@H](Cc1c[nH]c2ccccc12)C(=O)O [YLFS-RAW] (H-YLFSPNGPIARAW-OH; N-terminus and C-terminus assumed)
2. CC[C@H](C)[C@H](NC(=O)[C@@H]1CCCN1C(=O)CNC(=O)[C@H](CC(N)=O)NC(=O)[C@@H]1CCCN1C(=O)[C@H](CO)NC(=O)[C@H](Cc1ccccc1)NC(=O)[C@H](CC(C)C)NC(=O)[C@H](Cc1ccc(O)cc1)NC(=O)[C@H](CC(N)=O)NC(=O)[C@@H](N)[C@@H](C)O)C(=O)N[C@@H](C)C(=O)O [TNYL]
3. CC[C@H](C)[C@H](NC(=O)[C@@H]1CCCN1C(=O)CNC(=O)[C@H](CC(N)=O)NC(=O)[C@@H]1CCCN1C(=O)[C@H](CO)NC(=O)[C@H](Cc1ccccc1)NC(=O)[C@H](CC(C)C)NC(=O)[C@H](Cc1ccc(O)cc1)NC(=O)[C@@H](N)CC(N)=O)C(=O)N[C@@H](C)C(=O)N[C@@H](CCCNC(=N)N)C(=O)N[C@@H](C)C(=O)N[C@@H](Cc1c[nH]c2ccccc12)C(=O)O [NYLF-RAW] (H-NYLFSPNGPIARAW-OH; N-terminus and C-terminus assumed)

Reply:
[-13.8, -9.6, -15.5]

---

Assign TΔS to each entry below.
- Experimental System: human EphB4 ephrin-binding domain (Homo sapiens, UniProt P54760)
- Protocol Description: Isothermal titration calorimetry (ITC) binding to EphB4 (17-196)
- Run Parameters: 25° C., 50 mM Tris pH 7.8, 150 mM NaCl, 1 mM CaCl2
Peptide text beside a SMILES is read from it.
One number for each entry, in kcal/mol.

// solved cases for TΔS follow
Query: What TΔS value was documented for this molecule, CC[C@H](C)[C@H](NC(=O)[C@@H]1CCCN1C(=O)CNC(=O)[C@H](CC(N)=O)NC(=O)[C@@H]1CCCN1C(=O)[C@H](CO)NC(=O)[C@H](Cc1ccccc1)NC(=O)[C@H](CC(C)C)NC(=O)[C@H](Cc1ccc(O)cc1)NC(=O)[C@@H](N)CC(N)=O)C(=O)N[C@@H](C)C(=O)N[C@@H](CCCNC(=N)N)C(=O)N[C@@H](C)C(=O)N[C@@H](Cc1c[nH]c2ccccc12)C(=O)O [NYLF-RAW] (H-NYLFSPNGPIARAW-OH; N-terminus and C-terminus assumed) ?
Reply: -5.7

Query: Recorded TΔS for CC[C@H](C)[C@H](NC(=O)[C@@H]1CCCN1C(=O)CNC(=O)[C@H](CC(N)=O)NC(=O)[C@@H]1CCCN1C(=O)[C@H](CO)NC(=O)[C@H](Cc1ccccc1)NC(=O)[C@H](CC(C)C)NC(=O)[C@H](Cc1ccc(O)cc1)NC(=O)[C@H](CC(N)=O)NC(=O)[C@@H](N)[C@@H](C)O)C(=O)N[C@@H](C)C(=O)N[C@@H](CCCNC(=N)N)C(=O)N[C@@H](C)C(=O)N[C@@H](Cc1c[nH]c2ccccc12)C(=O)O [TNYL-RAW] (H-TNYLFSPNGPIARAW-OH; N-terminus assumed) , please?
Reply: -4.9

Query: Please report the recorded TΔS for CC[C@H](C)[C@H](NC(=O)[C@@H]1CCCN1C(=O)CNC(=O)[C@H](CC(N)=O)NC(=O)[C@@H]1CCCN1C(=O)[C@H](CO)NC(=O)[C@H](Cc1ccccc1)NC(=O)[C@H](CC(C)C)NC(=O)[C@@H](N)Cc1ccc(O)cc1)C(=O)N[C@@H](C)C(=O)N[C@@H](CCCNC(=N)N)C(=O)N[C@@H](C)C(=O)N[C@@H](Cc1c[nH]c2ccccc12)C(=O)O [YLFS-RAW] (H-YLFSPNGPIARAW-OH; N-terminus and C-terminus assumed) .
Reply: -4.1

Now examine the next entry.
Query: For the molecule CC[C@H](C)[C@H](NC(=O)[C@@H]1CCCN1C(=O)CNC(=O)[C@H](CC(N)=O)NC(=O)[C@@H]1CCCN1C(=O)[C@H](CO)NC(=O)[C@H](Cc1ccccc1)NC(=O)[C@@H](N)CC(C)C)C(=O)N[C@@H](C)C(=O)N[C@@H](CCCNC(=N)N)C(=O)N[C@@H](C)C(=O)N[C@@H](Cc1c[nH]c2ccccc12)C(=O)O [LFSP-RAW] (H-LFSPNGPIARAW-OH; N-terminus and C-terminus assumed) , what TΔS is on record?
Reply: 2.1
